Known IC50 of a selection of compounds
target: PRMT5 (Homo sapiens); construct: purchased Viva (custom protein); assay: PRMT5 biochemical IC50 assay with MTA as cofactor; details: PRMT5, MTA as cofactor; read-out: MTA IC50

1. CCc1cc(NC(=O)C(=O)N2C[C@@H](C)CC[C@@H]2c2ccc(N3CCC4(CCCN(C)C4)CC3)cc2)cnc1N (single isomer, unassigned) = < 50 nM

In plain terms, CCc1cc(NC(=O)C(=O)N2C[C@@H](C)CC[C@@H]2c2ccc3sc(C[C@@H](C)N(C)C)nc3c2)cnc1N has a documented IC50 of < 50 nM

In plain terms, CCc1cc(NC(=O)C(=O)N2C[C@@H](C)CC[C@@H]2c2cc3cn[nH]c3s2)cnc1N (single isomer, unassigned) has a documented IC50 of < 50 nM

----------
Known IC50 of a selection of compounds
test system: HAP1 MTAP-deleted cell line; assay: SDMA in-cell western assay, HAP1 MTAP-deleted; assay type: cell-based; conditions: Homo sapiens, HAP1, SDMA in-cell western, HAP1 MTAP-deleted; read-out: HAP 1 MTAP deleted IC50

Past entries and their recorded results:
1. Cc1cc(NC(=O)C(=O)N2C[C@H](C)CC[C@H]2c2ccncc2)cnc1N (single isomer, unassigned) [Compound 592] = < 100 nM
2. COc1ncc(NC(=O)C(=O)N2C[C@H](C)CC[C@H]2c2ccc(NS(C)(=O)=O)nc2)cc1C(N)=O (single isomer, unassigned) [Compound 986] = 100 to 1000 nM
3. Cc1cc(NC(=O)C(=O)N2C[C@@H](C)CC[C@@H]2c2cc(F)c3[nH]ncc3c2)cnc1N (single isomer, unassigned) [Compound 1350] = < 100 nM

In plain terms, COc1ncc(NC(=O)C(=O)N2C[C@H](C)CC[C@H]2c2ccc3sccc3c2)cc1C(N)=O (relative stereo) [Compound 633] has a documented IC50 of > 1000 nM

In plain terms, Cc1cc(NC(=O)C(=O)N2C[C@@H](C)CC[C@@H]2c2ccc3c(c2)C(=O)NC3)cnc1N (single isomer, unassigned) [Compound 657] has a documented IC50 of < 100 nM

In plain terms, CCc1cc(NC(=O)C(=O)N2C[C@@H](C)CC[C@@H]2c2ccc3sc(C4CCNCC4)nc3c2)cnc1N [Compound 1240] has a documented IC50 of < 100 nM

----------
Known IC50 of a selection of molecules
molecular target: PRMT5 (Homo sapiens, UniProt O14744); construct: purchased Viva (custom protein); experiment: PRMT5 biochemical IC50 assay with no cofactor; conditions: PRMT5, no cofactor; read-out: No Cofactor/ rel IC50
Sequence (O14744 whole entry): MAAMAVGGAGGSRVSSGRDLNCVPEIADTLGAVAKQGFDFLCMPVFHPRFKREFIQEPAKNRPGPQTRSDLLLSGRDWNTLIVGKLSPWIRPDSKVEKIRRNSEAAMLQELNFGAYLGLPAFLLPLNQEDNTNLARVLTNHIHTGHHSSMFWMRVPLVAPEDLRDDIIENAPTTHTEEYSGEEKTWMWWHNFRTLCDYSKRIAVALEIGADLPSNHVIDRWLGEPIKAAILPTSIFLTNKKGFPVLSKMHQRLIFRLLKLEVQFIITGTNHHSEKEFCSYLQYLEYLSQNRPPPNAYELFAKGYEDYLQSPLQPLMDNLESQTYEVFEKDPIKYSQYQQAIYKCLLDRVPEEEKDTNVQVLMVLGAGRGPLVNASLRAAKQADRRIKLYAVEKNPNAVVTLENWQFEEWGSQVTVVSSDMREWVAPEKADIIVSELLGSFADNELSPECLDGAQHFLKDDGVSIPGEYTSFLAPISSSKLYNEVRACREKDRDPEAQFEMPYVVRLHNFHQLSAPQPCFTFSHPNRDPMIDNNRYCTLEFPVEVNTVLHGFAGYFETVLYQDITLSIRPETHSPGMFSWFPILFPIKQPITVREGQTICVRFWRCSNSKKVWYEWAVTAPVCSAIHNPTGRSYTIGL
Sequence (Q9BQA1 whole entry partner): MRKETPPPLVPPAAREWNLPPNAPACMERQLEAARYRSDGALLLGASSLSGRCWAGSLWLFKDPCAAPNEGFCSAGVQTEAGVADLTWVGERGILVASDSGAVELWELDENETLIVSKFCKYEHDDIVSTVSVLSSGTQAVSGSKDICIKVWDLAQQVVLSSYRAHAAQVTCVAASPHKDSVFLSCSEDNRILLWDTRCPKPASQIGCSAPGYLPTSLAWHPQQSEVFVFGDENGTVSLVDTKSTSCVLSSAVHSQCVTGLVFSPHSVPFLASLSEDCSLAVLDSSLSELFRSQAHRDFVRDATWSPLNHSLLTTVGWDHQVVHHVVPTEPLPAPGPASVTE

1) Cc1cc(NC(=O)C(=O)N2C[C@@H](C)CC[C@@H]2c2cccs2)cnc1N (single isomer, unassigned) = > 500 nM
2) Cc1cc(NC(=O)C(=O)N2CCCC[C@@H]2c2cccs2)cnc1N (single isomer, unassigned) = 50 to 500 nM
3) CCc1cc(NC(=O)C(=O)N2C[C@@H](C)CC[C@@H]2c2ccc3sc(CC(C)N(C)C)nc3c2)cnc1N (mixture of isomers) = < 50 nM
4) Cc1cc(NC(=O)C(=O)N2C[C@H](C)CC[C@H]2C(C)C)cnc1N (racemic) = 50 to 500 nM
5) Cc1cc(NC(=O)C(=O)N2CCCC[C@@H]2C2CCCCC2)cnc1N (single isomer, unassigned) = 50 to 500 nM
6) Cc1cc(NC(=O)C(=O)N2C[C@@H](C)[C@H](CC(C)C)C[C@@H]2c2ccc3scnc3c2)cnc1N (single isomer, unassigned) = > 500 nM

Param item: CCc1cc(NC(=O)C(=O)N2C[C@@H](C)[C@H](OC(C)C)C[C@@H]2c2ccc3scnc3c2)cnc1N (racemic) ; param system: PRMT5 (Homo sapiens, UniProt O14744); output IC50: 50 to 500 nM

Param item: CNC(=O)c1cccc([C@H]2CC[C@H](C)CN2C(=O)C(=O)Nc2cncc(C)c2)c1 (racemic) ; param system: PRMT5 (Homo sapiens, UniProt O14744); output IC50: 50 to 500 nM

Param item: COc1ncc(NC(=O)C(=O)N2C[C@H](C)[C@H](OC)C[C@H]2c2ccc3scnc3c2)cc1C(N)=O (single isomer, unassigned) ; param system: PRMT5 (Homo sapiens, UniProt O14744); output IC50: < 50 nM

Param item: Cc1cc(NC(=O)C(=O)N2CCCC[C@@H]2c2ccncc2)cnc1N (single isomer, unassigned) ; param system: PRMT5 (Homo sapiens, UniProt O14744); output IC50: 50 to 500 nM

Param item: CCc1cc(NC(=O)C(=O)N2C[C@@H](C)CC[C@@H]2c2ccc3sc(CC4(N(C)C)COC4)nc3c2)cnc1N ; param system: PRMT5 (Homo sapiens, UniProt O14744); output IC50: < 50 nM

Param item: NC(=O)c1cncc(NC(=O)C(=O)N2CCCCC2C2CCCCC2)c1 (single isomer, unassigned) [Compound 113] ; param system: PRMT5 (Homo sapiens, UniProt O14744); output IC50: 50 to 500 nM

Param item: CCc1cc(NC(=O)C(=O)N2C[C@@H](C)CC[C@@H]2c2ccc3sc([C@@H]4CCN(C)C(=O)C4)nc3c2)cnc1N ; param system: PRMT5 (Homo sapiens, UniProt O14744); output IC50: < 50 nM
